study-system: KRAS WT (Homo sapiens (Human), UniProt P01116+P62937)
Sequence (P01116 other isoform, or with tags, fused parts or gaps): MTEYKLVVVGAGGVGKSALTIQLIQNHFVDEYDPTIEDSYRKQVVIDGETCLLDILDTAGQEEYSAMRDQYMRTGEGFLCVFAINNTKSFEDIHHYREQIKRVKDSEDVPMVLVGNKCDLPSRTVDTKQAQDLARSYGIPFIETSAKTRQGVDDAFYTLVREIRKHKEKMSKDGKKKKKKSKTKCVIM
Sequence (P62937 whole entry): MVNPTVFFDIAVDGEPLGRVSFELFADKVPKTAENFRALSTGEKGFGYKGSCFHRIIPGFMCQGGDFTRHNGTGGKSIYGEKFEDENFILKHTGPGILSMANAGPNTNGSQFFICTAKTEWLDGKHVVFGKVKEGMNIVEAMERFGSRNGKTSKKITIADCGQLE
assay-method-text: Ras-Raf disruption/FRET/MOA assay (BRAF RBD, Cyclophilin A)
Type: biochemical
conditions: read-out: KRAS WT FRET data IC50
Listed here: items and their measured IC50.
assay-metric: IC50

{"compound": "CCn1c(-c2cnccc2COC)c2c3cc(ccc31)-c1cc(O)cc(c1)C[C@H](NC(=O)[C@H](C(C)C)N(C)C(=O)N1CCOCC1)C(=O)N1CCC[C@H](N1)C(=O)OCC(C)(C)C2 [Compound A257]", "study-system": "KRAS WT (Homo sapiens (Human), UniProt P01116+P62937)", "assay-metric": "IC50", "observed-result": "100 to 1000 nM"}
{"compound": "CCn1c(-c2cccnc2[C@H](C)OC)c2c3cc(ccc31)-c1cc(O)cc(c1)C[C@H](NC(=O)C1CCC3C1C3(F)F)C(=O)N1CCC[C@H](N1)C(=O)OCC(C)(C)C2 (stereo partly drawn) [Compound A181]", "study-system": "KRAS WT (Homo sapiens (Human), UniProt P01116+P62937)", "assay-metric": "IC50", "observed-result": "1000 to 10000 nM"}
{"compound": "CCn1c(-c2cccnc2[C@H](C)OC)c2c3cc(ccc31)-c1csc(n1)C[C@H](NC(=O)[C@H](C(C)C)N(C)C(=O)N1C[C@H]3COC[C@H]3C1)C(=O)N1CCC[C@H](N1)C(=O)OCC(C)(C)C2 [Compound A312]", "study-system": "KRAS WT (Homo sapiens (Human), UniProt P01116+P62937)", "assay-metric": "IC50", "observed-result": "10 to 100 nM"}
{"compound": "CCn1c(-c2cccnc2[C@H](C)OC)c2c3cc(ccc31)-c1cc(O)cc(c1)C[C@H](NC(=O)[C@H](C(C)C)N(C)C(=O)C1(F)CC1)C(=O)N1CCC[C@H](N1)C(=O)OCC(C)(C)C2 [Compound A165]", "study-system": "KRAS WT (Homo sapiens (Human), UniProt P01116+P62937)", "assay-metric": "IC50", "observed-result": "10 to 100 nM"}
{"compound": "CCn1c(-c2cccnc2[C@H](C)OC)c2c3cc(ccc31)-c1cc(O)cc(c1)C[C@H](NC(=O)[C@H](C(C)C)N(C)C(=O)[C@@H]1CCCC[C@@H]1N)C(=O)N1CCC[C@H](N1)C(=O)OCC(C)(C)C2 [Compound A395]", "study-system": "KRAS WT (Homo sapiens (Human), UniProt P01116+P62937)", "assay-metric": "IC50", "observed-result": "10 to 100 nM"}
{"compound": "CCn1c(-c2cccnc2[C@H](C)OC)c2c3cc(ccc31)-c1csc(n1)C[C@H](NC(=O)[C@H](C(C)C)N(C)C(=O)N1CCN3C(=O)CN(C)C[C@H]3C1)C(=O)N1CCC[C@H](N1)C(=O)OCC(C)(C)C2 [Compound A537]", "study-system": "KRAS WT (Homo sapiens (Human), UniProt P01116+P62937)", "assay-metric": "IC50", "observed-result": "10 to 100 nM"}
{"compound": "CCn1c(-c2cccnc2[C@H](C)OC)c2c3cc(ccc31)-c1csc(n1)C[C@H](NC(=O)[C@H](C(C)C)N(C)C(=O)N1CC(S(=O)(=O)N(C)C)C1)C(=O)N1CCC[C@H](N1)C(=O)OCC(C)(C)C2 [Compound A551]", "study-system": "KRAS WT (Homo sapiens (Human), UniProt P01116+P62937)", "assay-metric": "IC50", "observed-result": "100 to 1000 nM"}
{"compound": "CCn1c(-c2cccnc2[C@H](C)OC)c2c3cc(ccc31)-c1cc(O)cc(c1)C[C@H](NC(=O)[C@H](C(C)C)N(C)C(=O)[C@@]1(F)CCN(C(=O)OC)C1)C(=O)N1CCC[C@H](N1)C(=O)OCC(C)(C)C2 [Compound A615]", "study-system": "KRAS WT (Homo sapiens (Human), UniProt P01116+P62937)", "assay-metric": "IC50", "observed-result": "10 to 100 nM"}
{"compound": "CCn1c(-c2cccnc2[C@H](C)OC)c2c3cc(ccc31)-c1csc(n1)C[C@H](NC(=O)C1(F)CC1)C(=O)N1CCC[C@H](N1)C(=O)OCC(C)(C)C2 [Compound A362]", "study-system": "KRAS WT (Homo sapiens (Human), UniProt P01116+P62937)", "assay-metric": "IC50", "observed-result": "100 to 1000 nM"}

---

Listed here: items and their measured IC50.
study-system: KRAS G12S (Homo sapiens (Human), UniProt P01116+P62937, G12S)
Sequence (P01116 other isoform, or with tags, fused parts or gaps G12S): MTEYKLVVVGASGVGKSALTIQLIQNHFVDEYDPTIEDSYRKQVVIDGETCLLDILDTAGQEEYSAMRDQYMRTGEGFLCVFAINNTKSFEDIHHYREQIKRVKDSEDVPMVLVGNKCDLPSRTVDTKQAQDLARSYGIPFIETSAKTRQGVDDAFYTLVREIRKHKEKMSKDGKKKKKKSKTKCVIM
Sequence (P62937 whole entry): as the sequence (P62937 whole entry) above
assay-method-text: Ras-Raf disruption/FRET/MOA assay (BRAF RBD, Cyclophilin A)
Format: biochemical
conditions: read-out: KRAS G12S FRET IC50

{"compound": "CCn1c(-c2cccnc2[C@H](C)OC)c2c3cc(ccc31)-c1csc(n1)[C@@H](OC)[C@H](NC(=O)[C@H](C(C)C)N(C)C(=O)N(C)C)C(=O)N1CCC[C@H](N1)C(=O)OCC(C)(C)C2", "IC50": "100 to 1000 nM"}
{"compound": "CCn1c(-c2cccnc2[C@H](C)OC)c2c3cc(ccc31)-c1cccc(c1)C[C@H](NC(=O)[C@H](C(C)C)N(C)C(=O)[C@@H]1CCN(C3COC3)C1)C(=O)N1CCC[C@H](N1)C(=O)OCC(C)(C)C2", "IC50": "> 10000 nM"}
{"compound": "CCn1c(-c2cccnc2[C@H](C)OC)c2c3cc(ccc31)-c1csc(n1)C[C@H](NC(=O)[C@H](C(C)C)N1CCC3(COC3)C1)C(=O)N1CCC[C@H](N1)C(=O)OCC(C)(C)C2", "IC50": "10 to 100 nM"}
{"compound": "CCn1c(-c2cccnc2[C@H](C)OC)c2c3cc(ccc31)-c1csc(n1)C[C@H](NC(=O)[C@H](C(C)C)N(C)C(=O)N1C[C@@H]3OCCN(C)[C@@H]3C1)C(=O)N1CCC[C@H](N1)C(=O)OCC(C)(C)C2", "IC50": "100 to 1000 nM"}
{"compound": "CCn1c(-c2cccnc2[C@H](C)OC)c2c3cc(ccc31)-c1csc(n1)C[C@H](NC(=O)[C@H](C(C)C)N(C)C(=O)N1CCOC[C@@H]1C)C(=O)N1CCC[C@H](N1)C(=O)OCC(C)(C)C2", "IC50": "100 to 1000 nM"}
{"compound": "CCn1c(-c2cccnc2[C@H](C)OC)c2c3cc(ccc31)-c1cc(O)cc(c1)C[C@H](NC(=O)[C@H](C(C)C)N(C)C(=O)[C@@H]1NC[C@@H]3C[C@@H]31)C(=O)N1CCC[C@H](N1)C(=O)OCC(C)(C)C2", "IC50": "10 to 100 nM"}
{"compound": "CCn1c(-c2cccnc2[C@H](C)OC)c2c3cc(ccc31)-c1cc(O)cc(c1)C[C@H](NC(=O)[C@H](C(C)C)N(C)C(=O)[C@H]1CCN(C(=O)[C@@H]3CCCN3)C1)C(=O)N1CCC[C@H](N1)C(=O)OCC(C)(C)C2", "IC50": "10 to 100 nM"}
{"compound": "CCn1c(-c2cccnc2[C@H](C)OC)c2c3cc(ccc31)-c1cc(O)cc(c1)C[C@H](NC(=O)[C@H](C(C)C)N(C)C(=O)[C@H]1CCC(=O)O1)C(=O)N1CCC[C@H](N1)C(=O)OCC(C)(C)C2", "IC50": "10 to 100 nM"}
{"compound": "CCn1c(-c2cccnc2[C@H](C)OC)c2c3cc(ccc31)-c1csc(n1)C[C@H](NC(=O)[C@H](C(C)C)N(C)C(=O)N1CC([C@@H](CO)OC)C1)C(=O)N1CCC[C@H](N1)C(=O)OCC(C)(C)C2", "IC50": "100 to 1000 nM"}
{"compound": "CCn1c(-c2cccnc2[C@H](C)OC)c2c3cc(ccc31)-c1csc(n1)C[C@H](NC(=O)[C@H](C(C)C)N1CCC3(CCN(C)C3)C1=O)C(=O)N1CCC[C@H](N1)C(=O)OCC(C)(C)C2 (stereo partly shown)", "IC50": "1000 to 10000 nM"}

---

study-system: KRAS Q61H binding to BRAF RBD (Homo sapiens (Human), UniProt P01116+P62937, Q61H)
Sequence (P01116 other isoform, or with tags, fused parts or gaps Q61H): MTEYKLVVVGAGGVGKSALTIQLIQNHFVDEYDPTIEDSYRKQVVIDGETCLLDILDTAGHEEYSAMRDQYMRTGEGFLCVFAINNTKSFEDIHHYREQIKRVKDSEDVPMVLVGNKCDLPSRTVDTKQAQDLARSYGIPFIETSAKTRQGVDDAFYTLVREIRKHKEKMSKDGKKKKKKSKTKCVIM
Sequence (P62937 whole entry): as the sequence (P62937 whole entry) above
assay-method-text: Ras-Raf disruption/FRET/MOA assay, KRAS Q61H
Description: Disruption of B-Raf Ras-binding Domain (BRAF^RBD) Interaction with K-Ras by Compounds of the Invention (also called a FRET assay or an MOA assay) Note—The following protocol describes a procedure for monitoring disruption of K-Ras G12C(GMP-PNP) binding to BRAF^RBD by a compound of the invention. This protocol may also be executed substituting other Ras proteins or nucleotides. […]
pIC50: −log10 of the molar value.
Listed here: items and their measured pIC50.

{"compound": "C=CC(=O)N1CC[C@]2(C1)OCN([C@H](C(=O)N[C@H]1Cc3cc(cc(C(F)(F)F)c3)-c3ccc4c(c3)c(c(-c3cccnc3[C@H](C)OC)n4CC)CC(C)(C)COC(=O)[C@@H]3CCCN(N3)C1=O)C(C)C)C2=O", "study-system": "KRAS Q61H binding to BRAF RBD (Homo sapiens (Human), UniProt P01116+P62937, Q61H)", "pIC50": "7.00 to 8.00"}
{"compound": "CCn1c(-c2cccnc2[C@H](C)OC)c2c3cc(ccc31)-c1cccc(c1)C[C@H](NC(=O)[C@H](C(C)C)N1CC[C@@]3(CCN(C(=O)C#CC(C)(C)N4CCC4)C3)C1=O)C(=O)N1CCC[C@H](N1)C(=O)OCC(C)(C)C2 (atropisomer, axis not shown)", "study-system": "KRAS Q61H binding to BRAF RBD (Homo sapiens (Human), UniProt P01116+P62937, Q61H)", "pIC50": "5.00 to 6.00"}
{"compound": "C=CC(=O)C1CC[C@H](C(=O)N(C)[C@H](C(=O)N[C@H]2Cc3cccc(c3)-c3ccc4c(c3)c(c(-c3cccnc3[C@H](C)OC)n4CC)CC(C)(C)COC(=O)[C@@H]3CCCN(N3)C2=O)C(C)(C)F)C1 (stereo partly shown)", "study-system": "KRAS Q61H binding to BRAF RBD (Homo sapiens (Human), UniProt P01116+P62937, Q61H)", "pIC50": "5.00 to 6.00"}
{"compound": "CCn1c(-c2cncnc2)c2c3cc(ccc31)-c1csc(n1)C[C@H](NC(=O)[C@H](C(C)C)N(C)C(=O)[C@H]1CCN(S(=O)(=O)CC)C1)C(=O)N1CCC[C@H](N1)C(=O)OCC(C)(C)C2", "study-system": "KRAS Q61H binding to BRAF RBD (Homo sapiens (Human), UniProt P01116+P62937, Q61H)", "pIC50": "< 5.00"}
